All values here come from PubChem BioAssay AID590.

# test-name: qHTS Assay for Spectroscopic Profiling in A350 Spectral Region
# condition: Compound autofluorescence, 340/450 nm, Alexa 350 dye-equivalents
Screen size: about 59,000 compounds; about 6,500 (11%) were called active. Not shown: some 15% with an inconclusive outcome. Rule as the data show it: active = max dye-equivalent concentration above about 10 nM; inconclusive = mostly about 1.1 nM to 9.6 nM; inactive = weaker than that. The full list was thinned out, with actives kept by preference.
Response enum: T for active, F for inactive

molecule	label-value
CC(C(=O)N1CCOCC1)N1c2cccc3cccc(c23)S1(=O)=O (stereo not given)	T
Cc1ccc(S(=O)(=O)N(C)CC(=O)NC2CCCC2)cc1	F
CC(C)CCNc1nc(N2CCCC2)c2c(c1C#N)CCN(C)C2	T

Ask: // outcome(item) with item = `CCOC(=O)c1cnc(SCC(=O)NCc2ccco2)nc1N`
Reply: F

----------
# test-name: qHTS Assay for Spectroscopic Profiling in A350 Spectral Region
# condition: Compound autofluorescence, 340/450 nm, Alexa 350 dye-equivalents
The campaign covered roughly 59,000 compounds. About 6,500 (11%) were called active. Inconclusive results (about 15%) are left out. Cut-off read from the data, not from the text of the source: active = max dye-equivalent concentration above about 10 nM; inconclusive = mostly about 1.1 nM to 9.6 nM; inactive = weaker than that. For the sample, actives were picked, then their nearest neighbours and some compounds at random.
Response enum: Yes (active), No (inactive)

# example entries with known answers
compound	label-value
CCOC(=O)C1CCCCN1Cc1ccc(OC)c(OC)c1OC (stereo not drawn)	No
Fc1ccc(-c2nnc3sc(-c4ccc5c(c4)OCO5)nn23)cc1	Yes
COc1cc(-c2noc(C3CCCN(S(=O)(=O)c4cccc(Cl)c4)C3)n2)cc(OC)c1OC (stereo not drawn)	No
O=C(CSc1nnc2scc(-c3ccc(F)cc3)n12)NCc1ccco1	No
COC(=O)c1ccc(C2NC(=O)NC(C)=C2C(=O)N(C)C)cc1 (stereo not drawn)	No

Ask: // outcome(item) with item = `O=C(Nc1cccc(C(=O)N2CCCC2)c1)c1ccccc1`
Reply: No

Ask: // outcome(item) with item = `CCC(CC)C(=O)Nc1cc(C(=O)OC)cc(C(=O)OC)c1`
Reply: No

Ask: // outcome(item) with item = `CS(=O)(=O)N(Cc1nc2sc3c(c2c(=O)[nH]1)CCCC3)C1CCCCC1`
Reply: Yes

Ask: // outcome(item) with item = COCCOC(=O)C1=C(C)NC(=O)CC1c1cc2c(cc1Br)OCO2 (stereo not drawn)
Reply: No

Ask: // outcome(item) with item = `O=S(=O)(NCc1ccccc1Cl)c1cnc[nH]1`
Reply: No

Ask: // outcome(item) with item = CC(=O)C1C(c2cccc(Oc3ccccc3)c2)NC(=O)NC1(O)C(F)(F)F (stereo not drawn)
Reply: No

Ask: // outcome(item) with item = `Cc1nnc2sc(-c3ccco3)nn12`
Reply: No

Ask: // outcome(item) with item = `CCOCCN(C=O)c1cccc(OC)c1`
Reply: No

----------
# test-name: qHTS Assay for Spectroscopic Profiling in A350 Spectral Region
# condition: Compound autofluorescence, 340/450 nm, Alexa 350 dye-equivalents
In all, about 59,000 compounds went through this assay and about 6,500 (11%) were called active. Inconclusive results (about 15%) are left out. No stated cut-off is given here; in the data, active means max dye-equivalent concentration above about 10 nM; inconclusive means mostly about 1.1 nM to 9.6 nM; inactive means weaker than that. Many of the other results were omitted from the sample, so actives are more common in it than they were.
Response enum: class 1 (active), class 0 (inactive)

compound	label-value
CNC(=O)c1nnn(-c2ccccc2)c1C(=O)NC	class 0
Cc1cc(C)cc(N(C(C)C(=O)Nc2c(C)n(C)n(-c3ccccc3)c2=O)S(C)(=O)=O)c1 (stereo not drawn)	class 0
CCOC(=O)N1CCC(O)(c2cc(C)c(C)cc2C)CC1	class 0
CC(C)C(c1nnnn1C1CCCC1)N1CCN(c2ccccc2F)CC1 (stereo not drawn)	class 0
N#CC1=C(N)Oc2n[nH]c(CSc3ccccc3)c2C12C(=O)Nc1ccccc12 (stereo not drawn)	class 0

Could you now look at the following compound, please?
Ask: // outcome(item) with item = `Cn1c(=S)c2[nH]c(SCCCc3ccccc3)nc2n(C)c1=O`
Reply: class 1

----------
# test-name: qHTS Assay for Spectroscopic Profiling in A350 Spectral Region
# condition: Compound autofluorescence, 340/450 nm, Alexa 350 dye-equivalents
# Description: NIH Molecular Libraries Screening Centers Network [MLSCN] NIH Chemical Genomics Center [NCGC] Occasionally, the artifactual effect may originate from the compounds own spectral or other biophysical properties which generally tend to track its assay concentration. […] A standard curve of Alexa 350 (A 350) present on each plate as six-point concentration series, was used to compute a normalized fluorescence response, termed dye-equivalent concentration, for each compound at each concentration. […]
Screen size: about 59,000 compounds; about 6,500 (11%) were called active. Inconclusive results (about 15%) are left out. No stated cut-off is given here; in the data, active means max dye-equivalent concentration above about 10 nM; inconclusive means mostly about 1.1 nM to 9.6 nM; inactive means weaker than that. What follows is part of a selection rich in actives, with near analogues and random picks from the rest.
Response enum: YES (active), NO (inactive)

# example entries with known answers
molecule	label-value
Cc1c(C(=O)N2CCOCC2)[nH]c2ccc(OCc3ccccc3)cc12	NO
COc1ccc(-c2ccnc(SCC(=O)N3CCOCC3)n2)cc1	YES
CCn1c(COc2cccc(OC)c2)nnc1SCC(=O)N1CCOCC1	NO
Cc1nc2nc(COc3ccccc3)[nH]n2c(=O)c1Cc1ccccc1	NO
CS(=O)(=O)N1CCC2(CC1)CN(Cc1cc(C(F)(F)F)cc(C(F)(F)F)c1)C2	NO
COc1ccc(OC)c(NC(=O)CCN2CCC(C)CC2)c1	NO
Cc1ccc(S(=O)(=O)N2CCCC2CO)cc1 (stereo not drawn)	NO
COc1cc(NC(=O)N2CCOCC2)cc(OC)c1	NO

Could you now look at the following molecule, please?
Ask: // outcome(item) with item = `Cc1ccccc1NC(=O)Cc1nnc(SCC(=O)N2CCN(c3ccccc3)CC2)n1C`
Reply: NO

----------
# test-name: qHTS Assay for Spectroscopic Profiling in A350 Spectral Region
# condition: Compound autofluorescence, 340/450 nm, Alexa 350 dye-equivalents
# From the text: NIH Molecular Libraries Screening Centers Network [MLSCN] NIH Chemical Genomics Center [NCGC] Occasionally, the artifactual effect may originate from the compounds own spectral or other biophysical properties which generally tend to track its assay concentration. […] A standard curve of Alexa 350 (A 350) present on each plate as six-point concentration series, was used to compute a normalized fluorescence response, termed dye-equivalent concentration, for each compound at each concentration. […]
Among all 59,000 compounds or so, about 6,500 (11%) were called active. About 15% were inconclusive and are not listed. No stated cut-off is given here; in the data, active means max dye-equivalent concentration above about 10 nM; inconclusive means mostly about 1.1 nM to 9.6 nM; inactive means weaker than that. The sample as a whole holds a higher share of actives than the screen did.
Response enum: active, inactive

Ask: // outcome(item) with item = `Cc1ccc(S(=O)(=O)NCC(=O)OCC(=O)N2CCc3ccccc32)cc1`
Reply: inactive

Ask: // outcome(item) with item = `CCNS(=O)(=O)c1ccc(NC(=O)Nc2cccc(OC)c2)cc1`
Reply: inactive

Ask: // outcome(item) with item = `COc1ccc(N2C(=O)c3cccc4cccc(c34)C2=O)nn1`
Reply: active

Ask: // outcome(item) with item = COC(=O)C1=C(C)NC(=O)NC1/C=C/c1ccccc1 (stereo not drawn)
Reply: inactive

Ask: // outcome(item) with item = `CCN(CC(=O)NCc1cccs1)c1nnnn1-c1ccccc1`
Reply: inactive

Ask: // outcome(item) with item = C=CCC(NCCCO)c1cccc(OC)c1OC (stereo not drawn)
Reply: inactive

----------
# test-name: qHTS Assay for Spectroscopic Profiling in A350 Spectral Region
# condition: Compound autofluorescence, 340/450 nm, Alexa 350 dye-equivalents
Hit rate of the full screen: of about 59,000 compounds, about 6,500 (11%) were called active. Inconclusive results (about 15%) are left out. No stated cut-off is given here; in the data, active means max dye-equivalent concentration above about 10 nM; inconclusive means mostly about 1.1 nM to 9.6 nM; inactive means weaker than that. For the sample, actives were picked, then their nearest neighbours and some compounds at random.
Response enum: 1 = active, 0 = inactive

Ask: // outcome(item) with item = `COC(=O)c1ccc(CSc2nncn2C)cc1`
Reply: 0

Ask: // outcome(item) with item = O=C(O)CN1C(=O)CC(Cc2ccccc2)C1=O (stereo not given)
Reply: 0

Ask: // outcome(item) with item = C=CCn1c(SCc2nnc(-c3ccccc3)o2)nnc1C(O)c1ccccc1 (stereo not given)
Reply: 0

Ask: // outcome(item) with item = O=C(CN(CC1CCCO1)C(=O)CNS(=O)(=O)c1ccccc1)NCc1ccccc1 (stereo not given)
Reply: 0

Ask: // outcome(item) with item = `CCOC(=O)c1sc(NC(=O)CSc2nnc(-c3ccco3)o2)c(C(=O)OCC)c1C`
Reply: 0

Ask: // outcome(item) with item = CCC(C)NC(=O)C1CCC(=O)N1Cc1ccc(C)cc1 (stereo not given)
Reply: 0

Ask: // outcome(item) with item = Cc1cc(C)c2cc(CN(Cc3cccs3)Cc3nnnn3CC3CCCO3)c(=O)[nH]c2c1 (stereo not given)
Reply: 0

----------
# test-name: qHTS Assay for Spectroscopic Profiling in A350 Spectral Region
# condition: Compound autofluorescence, 340/450 nm, Alexa 350 dye-equivalents
# Excerpt: NIH Molecular Libraries Screening Centers Network [MLSCN] NIH Chemical Genomics Center [NCGC] Occasionally, the artifactual effect may originate from the compounds own spectral or other biophysical properties which generally tend to track its assay concentration. […] A standard curve of Alexa 350 (A 350) present on each plate as six-point concentration series, was used to compute a normalized fluorescence response, termed dye-equivalent concentration, for each compound at each concentration. […]
Screen size: about 59,000 compounds; about 6,500 (11%) were called active. About 15% were inconclusive and are not listed. Rule as the data show it: active = max dye-equivalent concentration above about 10 nM; inconclusive = mostly about 1.1 nM to 9.6 nM; inactive = weaker than that. Many of the other results were omitted from the sample, so actives are more common in it than they were.
Response enum: active, inactive

molecule	label-value
Cc1c(S(=O)(=O)O)ccc(N=Nc2c(O)c(C(=O)O)cc3ccccc23)c1Cl	active
COc1ccc(CNC(=O)C2CCN(S(=O)(=O)N3CCOCC3)CC2)cc1	inactive
O=S(=O)(c1ccc(Sc2nnc3ccccn23)nc1)N1CCOCC1	inactive
COc1ccc(CCn2c(=N)c(C(=O)NCc3ccco3)cc3c(=O)n4cccc(C)c4nc32)cc1	active

Ask: // outcome(item) with item = `O=C(c1ccco1)N1CCC2(CC1)CN(c1ncccn1)C2`
Reply: inactive

Ask: // outcome(item) with item = COc1ccc(N2C(=O)CCC(C(=O)Nc3ccccn3)C2c2ccc(OC)c(OC)c2)cc1 (stereo unspecified)
Reply: inactive

Ask: // outcome(item) with item = `Cc1cc(C)c(C#N)c(SCc2ccccc2C(=O)O)n1`
Reply: active
